Target: T1, human GITR (amino acids M1-V241, NCBI Accession #NP_004186.1) expressed on cells (human, UniProt Q9Y5U5 26-241)
T1 sequence: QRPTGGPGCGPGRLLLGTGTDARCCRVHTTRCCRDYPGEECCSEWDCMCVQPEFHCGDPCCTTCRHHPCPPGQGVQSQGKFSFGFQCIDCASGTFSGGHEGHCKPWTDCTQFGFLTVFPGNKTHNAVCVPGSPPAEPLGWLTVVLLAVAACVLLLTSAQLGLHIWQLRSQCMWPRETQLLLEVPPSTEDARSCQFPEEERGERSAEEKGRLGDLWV
Assay: cell-based or functional assay
observed-property: fold activation, T-cell proliferation, 22 nM, non-anchored, donor 3

Query H4H14475P (antibody, human IgG4, V domains shown, human IgG4 (H4H)) VH: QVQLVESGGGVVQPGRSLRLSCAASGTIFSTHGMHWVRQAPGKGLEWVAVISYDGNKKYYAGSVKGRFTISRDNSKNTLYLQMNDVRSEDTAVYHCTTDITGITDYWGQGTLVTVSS VL: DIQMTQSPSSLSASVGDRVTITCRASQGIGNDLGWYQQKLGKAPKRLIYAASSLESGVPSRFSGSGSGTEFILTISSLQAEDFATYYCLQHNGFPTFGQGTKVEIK yields fold activation, T-cell proliferation, 22 nM, non-anchored, donor 3 of 0.8 fold

Lookup result for H4H14528P (antibody, human IgG4, V domains shown, human IgG4 (H4H)) VH: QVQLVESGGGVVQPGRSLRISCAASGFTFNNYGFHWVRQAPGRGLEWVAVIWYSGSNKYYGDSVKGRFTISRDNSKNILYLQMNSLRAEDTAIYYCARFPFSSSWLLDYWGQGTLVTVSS VL: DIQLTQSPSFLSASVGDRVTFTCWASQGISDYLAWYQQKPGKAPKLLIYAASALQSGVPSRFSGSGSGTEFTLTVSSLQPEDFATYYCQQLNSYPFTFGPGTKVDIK ; measured fold activation, T-cell proliferation, 22 nM, non-anchored, donor 3: 0.9 fold

// sample H4H14470P (antibody, human IgG4, V domains shown, human IgG4 (H4H)) VH: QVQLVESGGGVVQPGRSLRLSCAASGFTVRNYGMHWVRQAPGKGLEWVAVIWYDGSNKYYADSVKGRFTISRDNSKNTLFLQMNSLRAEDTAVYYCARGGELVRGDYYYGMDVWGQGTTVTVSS VL: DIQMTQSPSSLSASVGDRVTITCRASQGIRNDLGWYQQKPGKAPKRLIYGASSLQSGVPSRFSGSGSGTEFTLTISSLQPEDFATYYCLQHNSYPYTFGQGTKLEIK , its fold activation, T-cell proliferation, 22 nM, non-anchored, donor 3 was 1 fold

H4H14469P (antibody, human IgG4, V domains shown, human IgG4 (H4H)) VH: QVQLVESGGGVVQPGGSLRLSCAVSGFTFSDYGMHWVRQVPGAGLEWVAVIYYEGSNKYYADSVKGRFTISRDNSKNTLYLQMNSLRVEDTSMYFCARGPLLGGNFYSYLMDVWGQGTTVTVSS VL: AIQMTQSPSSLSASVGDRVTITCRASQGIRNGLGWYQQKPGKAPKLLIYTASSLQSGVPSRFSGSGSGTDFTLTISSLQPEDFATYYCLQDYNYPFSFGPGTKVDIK yielded fold activation, T-cell proliferation, 22 nM, non-anchored, donor 3 of 1 fold

fold activation, T-cell proliferation, 22 nM, non-anchored, donor 3 recorded for this binder, H4H14508P (antibody, human IgG4, V domains shown, human IgG4 (H4H)) VH: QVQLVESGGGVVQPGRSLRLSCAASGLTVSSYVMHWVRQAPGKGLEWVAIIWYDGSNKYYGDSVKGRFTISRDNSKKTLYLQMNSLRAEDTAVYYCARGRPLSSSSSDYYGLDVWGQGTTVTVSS VL: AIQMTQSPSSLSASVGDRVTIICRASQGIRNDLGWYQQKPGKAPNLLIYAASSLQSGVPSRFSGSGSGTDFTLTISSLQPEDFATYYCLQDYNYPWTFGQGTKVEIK , is 0.9 fold

binder H4H14516P (antibody, human IgG4, V domains shown, human IgG4 (H4H)) VH: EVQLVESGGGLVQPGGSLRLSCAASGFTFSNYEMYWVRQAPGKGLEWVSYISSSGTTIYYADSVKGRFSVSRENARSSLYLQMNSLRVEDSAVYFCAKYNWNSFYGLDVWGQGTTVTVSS VL: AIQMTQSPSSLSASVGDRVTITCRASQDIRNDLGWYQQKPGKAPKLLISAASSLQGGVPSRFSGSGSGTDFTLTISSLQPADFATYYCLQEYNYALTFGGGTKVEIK , fold activation, T-cell proliferation, 22 nM, non-anchored, donor 3 observed: 1 fold
